system: Pseudomonas aeruginosa MB9798 vs MB9799; conditions: ratio MITC95 PA_9798/MITC95 PA_9799
Consider the following compounds and their measured Efflux ratio readings.
Please state the value as a number alone, without comment.

Sample answers from the record:
CC[C@H](CN)NS(=O)(=O)c1ccc(-c2cccc3[nH]c(N)nc23)c(-c2nn[nH]n2)c1S(N)(=O)=O [Example 265] = 1.00
Nc1nc2c(-c3ccc(S(=O)(=O)NCCC(N)C(F)(F)F)c(S(N)(=O)=O)c3-c3nnn[nH]3)cccc2s1 (stereo not shown) [Example 49] = 8.00

Inquiry: Efflux ratio lookup needed for Nc1nc2c(-c3ccc(S(=O)(=O)NCc4ccccn4)c(S(N)(=O)=O)c3-c3nnn[nH]3)cccc2s1.O=C(O)C(F)(F)F [Example 106] , thanks.
Reply text: 4.00

Inquiry: Look up Efflux ratio for this compound: NC1CCC(c2ccc(S(N)(=O)=O)c(S(N)(=O)=O)c2-c2nnn[nH]2)CC1 (stereo not shown) [Example 165]
Reply text: 4.00

Inquiry: Data request, read-out Efflux ratio, for NS(=O)(=O)c1c(S(=O)(=O)N[C@@H]2CCNC2)ccc(-c2cccc3[nH]cnc23)c1-c1nn[nH]n1 [Example 193]
Reply text: 1.00

Inquiry: Reported Efflux ratio, compound NCCNS(=O)(=O)c1ccc(-c2ccc(N)nc2)c(-c2nn[nH]n2)c1S(N)(=O)=O [Example 196] : ____
Reply text: 1.00

Inquiry: Consider the compound NCc1nc2cc(-c3ccc(S(=O)(=O)N[C@@H]4CCNC4)c(S(N)(=O)=O)c3-c3nn[nH]n3)ccc2s1 [Example 275] and give its measured Efflux ratio.
Reply text: 1.00

This collection of values is drawn from patent US10221163B2.
